test: yeast display, Sf9 membrane polyspecificity reagent, FACS + sequencing; frameworks hold sequencing errors
Quantity Kind: polyreactivity (PSR sort gate)

[[record]]
entry_sequence = "QVQLVESGGGLVQAGGSLRLSCAASGRTFTYNAMGWYRQAPGKERELVAAITYRGGSTYYADSVKGRFTISRDNAKNTVYLQMNSLKPEDTAVYYCAARVSYYRYNTPHYYYWGQGTQVTVSS"
observed_result = "high polyreactivity"

[[record]]
entry_sequence = "QVQLVESGGGLVQAGGSLRLSCAASGRTFWYYDKGWYRQAPGKERELVAAITNGDRTYYADSVKGRFTISRDNAKNTVYLQMNSLKPEDTAVYYCAKETWGTRHDYWGQGTQVTVSS"
observed_result = "high polyreactivity"


* * *

experiment: yeast display, Sf9 membrane polyspecificity reagent, FACS + sequencing; frameworks hold sequencing errors
Quantity Kind: polyreactivity (PSR sort gate)

[[record]]
entry_sequence = "QVQLVESGGCLVQAGGSLRLSCAASGSTFWGYTMGWYRQAPGKVRELVAAISSDGSTNYADSVKGRFTISRDNAKNTVYLQMNSLKPEDTAVYDCNTVYDPDTGQSDSWGQGTQVTVSS"
quantity_kind = "polyreactivity (PSR sort gate)"
observed_result = "low polyreactivity"

[[record]]
entry_sequence = "QVQLVESGGGLVQAGGSLRLSCAASGRIFRYYVMGWYRHAPGKEREFVASISGRGASTYYADSVKGRFTISRDNAKNTVYLLMNSLKPEDTAVYYCNADVWLLSYFPEYDYWGQGTQVTVSS"
quantity_kind = "polyreactivity (PSR sort gate)"
observed_result = "low polyreactivity"


* * *

experiment: yeast display, Sf9 membrane polyspecificity reagent, FACS + sequencing; frameworks hold sequencing errors
Quantity Kind: polyreactivity (PSR sort gate)

Record excerpt, results attached:
[[record]]
entry_sequence = "QVQLVESGGGLVQAGGSLRLSSAASGFTFDCNTMGWYRQAPGKERELVALISSTGGRTYYADSVQGRFSISRDNAKNTVYLQMNSLKPEDTAGSYCNKRRRNPVGYDYWGLGTQVTVSS"
observed_result = "high polyreactivity"

[[record]]
entry_sequence = "QVQLVESGGGLVQAGGSLRLSCAASGGIFYSNAMGWYRQAPGKERELVAVISGNGGRTYYADSVKGRFTISRDNAKNTVYLQMNSLKPEDTAVYYCATPSYTTAYVEGDYWGQGTQVTVSS"
observed_result = "low polyreactivity"

[[record]]
entry_sequence = "QVQLVESGGGLVQAGGSLRLSCAASGGTFQSNGMGWYIQAPGKERELVATITGSGGDTSYAGSVKGRFTISRDNAKNTVYLQMNSLKPEDTAVYYCAAADADRKYDYWGQGTQVTVSS"
observed_result = "low polyreactivity"

[[record]]
entry_sequence = "QVQLVESGGGLVQAGGSLRLSCAASGSIFGRYAMGWYRQAPGTERELVAAISSGGITYYADSVKGRFTISRDNAKNTVYLQMNSLTPEDTAVYYCAVKYLSWYAKYDSWGQGTQVTVSS"
observed_result = "high polyreactivity"

[[record]]
entry_sequence = "QVQLVESGGGLVQAGGSLRLSCAASGRTFWRYAMGWYRQAPGKERELVAGITSRGGSTYYADSVKGRFTISRDNAKNTVYLQMNSLKPEDTAVYYCNRRSQVHSHSKHDYWGQGTQVTVSS"
observed_result = "low polyreactivity"


Query string: Requested read-out: polyreactivity (PSR sort gate). Entry: `QVQLVESGGGLVQSGGSLRLSCAASGFTFASYAMGWYRQAPGKERELVAAIDSDDSTNYADSVKGRFTISRDNAKNTVYLQMNSLKPEDTAVYYCAADEGPYYGIYEYYYWGQGTQVTVSS`
Result string: high polyreactivity

Query string: Value lookup for polyreactivity (PSR sort gate); key = `QVQLVESGGGLVQAGGSLRLSCAASGSIFGGNAMGWSRQAPGKERELVAVITSGGSTYYADSVKGRFTISRDNAKNTVYLQMNSLKPEDTAVYYCNVDRLARKAHYDYWGQGTQVTVSS`
Result string: high polyreactivity

Query string: Can you share its polyreactivity (PSR sort gate)? I mean this sequence: `QVQLVESGGGLVQAGGSLRLSCAASGITFGDYAMGWDRQAPGKERELVAGINWSGDGTYYSDSVKGRFTISRDNAKNTFYLQMNSLKPEDTAVYYCAAETFYDYGGYDYWGQGTQVTVSS`
Result string: low polyreactivity

Query string: Could you share which polyreactivity (PSR sort gate) value was measured for `QVQLVESGGGLVQAGGSLRLSCAASGSILTFYAMGWYRQAPGKERELVAAITWRGGSTYYAYSVKGRFTISRDNAKNTVYLQMNSLKPEDTAVYYCAAEQVGYYLNWRDYWGQGTQVTVSS` ?
Result string: high polyreactivity

Query string: I would be grateful if you could share the reported polyreactivity (PSR sort gate) for `QVQLVESGGGLVQAGGSLRLSCAASGRIFVYNTMGWYRQAPGKERELVAAMSWSGVGTYYADSVKGRFTISRDKAKNTVYLQMNSLKPEDTAVYYCNAWIYYGYFIFDYWGQGTQVTVSS` .
Result string: high polyreactivity

Query string: Any idea what its polyreactivity (PSR sort gate) is? The sequence is `QVQLVQSGVGLDQAGGSLRLSCAASGSISSQNAMGWYRQAPGKESELVAAISWIGGSTYYADSVKGRFTISRDNAKNTVYLQMNSLKPEDTAVYYCAKDRASGFKYYYWGLGTQVTVSS`
Result string: low polyreactivity

Query string: Could you tell me which polyreactivity (PSR sort gate) is on file for `QVQLVESGGGLVQAGGSLRLSCAASGRTFWVYAMGWYRQAPGKERELVAGISSGASTYYADSVKGRFTISRDNAKNTVYLQMNSLKPEDTAVYYCAAPYYRLTGWSRYDYWGQGTQVTVSS` ?
Result string: high polyreactivity

Query string: # lookup: polyreactivity (PSR sort gate) of `QVQLVESGGGLVQAGGSLRLSCAASGFIFGDYAMGWYRQAPGKEGELVAAIRGSDSTTYYADSVKGRFTISRDNAKNTVYLQMNSLKPEDTAVYYCAAVGVVPLKKSARVYYWGQGTQVTVSS`
Result string: low polyreactivity

Query string: # get_value(readout='polyreactivity (PSR sort gate)', item= `QVQLVESGGGLVQAGGSLRLSCAASGRTFPFYAMGWYRQAPGKERELVASISRSTGRTYYADSVKGRFTISRDNAKNTVYLQMNSLKPEDTAVYYCAKSGGSSQYWYGYWGQGTQVTVSS` )
Result string: high polyreactivity

Query string: polyreactivity (PSR sort gate) for `QVQLVESGGGLVQAGGSLRLSCAASGSILTYYAMGWYRQAPGKERELVAAINNIGGSTYYADSVKGRFTISRDNAKNTVYLQMNSLKPEDTAVYYCAKYYAWPYDYWGQGTQVTVSS` ?
Result string: low polyreactivity

Query string: What polyreactivity (PSR sort gate) value was documented for this sequence, `QVQLVESGGGLVQAGGSLRLSCAASGITFRTYAMGWYRQAPGKERELVAGIRTRTGSTYYADSVKGRFTISRDNAKNTVYLQMNSLKPEDTAVYYCAAKGSGYYGRQRIYSYTYDYWGQGTQVTVSS` ?
Result string: high polyreactivity

Query string: Fill in: polyreactivity (PSR sort gate) of `QVQLVESGGGLVQAGGSLRLSCAPSGSTIVRYAMGWYRQAPGKERELVAAISGSGGTTYYADSVKGRFTISRDNAKNTVYLQMNSLKPEDTAVYYCATRISAMDYWGQGTQVTVSS` is ___
Result string: high polyreactivity

Query string: Name the reported polyreactivity (PSR sort gate) value associated with the sequence `QVQLVESGGGLVQAGGSLRLICAASGRIFSSYAMGWYRQAPGKERELVAAISRGGGRTYYADSVKGRFTISRDNAKNTVYLQMNSLKPEDTAVYYCAVRLYYSIRYYYWGQGTQVTVSS`
Result string: high polyreactivity

Query string: Which polyreactivity (PSR sort gate) reading was recorded for the sequence `QVQLVESGGGLVQAGGSLRLICAASGSIFFWYTMGWYRQAPGKERELVATITGSGSSTTYADSVKGRFTISRDNAKYTVYLQMNSLKPEDTAVYYCAAADIIDHSFPYDYWGQGTQVTVSS` ?
Result string: low polyreactivity

Query string: What measured polyreactivity (PSR sort gate) goes with `QVQLVESGGGLVQAGGSLRISCAASGSIFVYYGMGWYRQAPGKERELVAAISSGGSTHYADSVKGRFTISRDNAKNTVYLQMNSLKPEDTAVYYCAAERFFWLRSYPRYYYWGQGTQVTVSS` ?
Result string: low polyreactivity

Query string: Quick one: polyreactivity (PSR sort gate) for `QVQLEESGGGLVQGGGSLRLSCAASGSNFQDNAMGWYRQAPGKERELVAAITGRDASTYYADSVKGRFTISRDNAKNTVYLQLNCLKPEDTAVDYCYWGQGTQVTVSS` ?
Result string: low polyreactivity

The values you see were collected from the nanobody polyreactivity screen of Harvey et al. (2022).
